# MEASURED ON: Cynomolgus monkey CTGF-Fc (cynomolgus monkey)
# Sequence (P29279 other isoform, or with tags, fused parts or gaps limits assumed): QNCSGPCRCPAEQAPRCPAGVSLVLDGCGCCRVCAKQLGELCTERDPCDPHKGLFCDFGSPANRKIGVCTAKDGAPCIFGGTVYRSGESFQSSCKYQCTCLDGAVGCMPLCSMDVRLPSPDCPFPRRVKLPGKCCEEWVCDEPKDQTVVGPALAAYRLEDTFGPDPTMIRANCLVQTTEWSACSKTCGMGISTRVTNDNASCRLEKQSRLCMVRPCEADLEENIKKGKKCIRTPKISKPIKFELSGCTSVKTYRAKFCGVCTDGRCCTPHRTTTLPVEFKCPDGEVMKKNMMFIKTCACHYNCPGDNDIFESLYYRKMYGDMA
# PROCEDURE TEXT: ELISA, cyno-CTGF-mFc captured by anti-mFc
MEASUREMENT LABEL: EC50 (nM)
Report the figure in nM without appending any unit label.

For Hu147-12wk (antibody, human IgG1, kappa, V domains shown) VH: EVQLVESGGGLVQPGGSLRLSCAASGFTFSTYAMNWVRQAPGKGLEWVGRIRTKSNNYATYYADSVKDRFTISRDDSKNSLYLQMNSLKTEDTAVYYCVETGFAYWDQGTLVTVSS VL: EIVLTQSPATLSLSPGERATLSCSASSSVSYMHWFQQKPGQSPKLLIYSTSNLASGIPARFSGSGSGTDYTLTISSLEPEDFAVYYCQQRSSYPLTFGQGTKLEIKR , what is its reported EC50? 0.062

Attention now turns to another entry.
Quick one: EC50 of Hu147-21wk (antibody, human IgG1, kappa, V domains shown) VH: EVQLVESGGGLVQPGGSLRLSCAASGFTFNTYAMNWVRQAPGKGLEWVARIRTKSNNYATYYADSVKDRFTISRDDSKNSLYLQMNSLKTEDTAVYYCVETGFAYWDQGTLVTVSS VL: EIVLTQSPATLSLSPGERATLSCSASSSVSYMHWFQQKPGQSPRLLIYSTSNLASGIPARFSGSGSGTDYTLTISSLEPEDFAVYYCQQRSSYPLTFGQGTKLEIKR ? 0.053
